melting point for assorted compounds

- compound: "O=C(N/N=C/c1cc(Br)cc(Br)c1O)c1ccc(I)cc1"
  melting point: "210 to 211 °C"
- compound: "O=C(N/N=C/c1cc(O)ccc1O)c1ccccc1I"
  melting point: "211 to 214 °C"
- compound: "O=C(N/N=C/c1ccccc1O)c1cccc(I)c1"
  melting point: "201 to 203 °C"

Query: Please indicate melting point recorded for NNC(=O)c1ccc(I)cc1 [Compound 6, 4-iodobenzohydrazide]
Result: 161 to 162 °C

Query: Please indicate melting point recorded for O=C(N/N=C/c1cccc([N+](=O)[O-])c1O)c1ccc(I)cc1
Result: 198 to 202 °C

Query: Please indicate melting point recorded for O=C(N/N=C/c1cc(I)cc(I)c1O)c1ccccc1I
Result: 241 to 245 °C

Query: Please indicate melting point recorded for O=C(N/N=C/c1cccc([N+](=O)[O-])c1O)c1cccc(I)c1
Result: 190 to 199 °C

Query: Please indicate melting point recorded for O=C(N/N=C/c1cc(Cl)cc(I)c1O)c1ccc(I)cc1
Result: 200 to 201 °C

Query: Please indicate melting point recorded for O=C(N/N=C/c1cc(Cl)cc(Cl)c1O)c1ccc(I)cc1
Result: 281 to 284 °C
